Every entry's value here was drawn from paper PMC3656968.

- methodSummary: Relaxivity in HEPES buffer in the absence of HSA
- Type: physicochemical
- conditionContext: 0.47T, 50 mM HEPES buffer pH 7.4, 37 °C
testReadout: r1^free (mM⁻¹ s⁻¹)
Just the number please, in mM⁻¹ s⁻¹, no unit attached.

Inquiry: Endpoint output: r1^free of C[C@H](NC(=O)C(N)CN1CCN(CC(=O)O)CCN(CC(=O)O)CCN(CC(=O)O)CC1)c1ccccc1 (some centres unmarked) . Value?
Reply text: 4.8

Inquiry: // r1^free lookup, key: COC(=O)CNC(=O)C(CN1CCN(CC(=O)O)CCN(CC(=O)O)CCN(CC(=O)O)CC1)NC(=O)C(N)Cc1cc(I)c(O)c(I)c1 (centres unmarked)
Reply text: 6.9

Inquiry: Any idea what r1^free was measured for NC(Cc1cc(I)c(O)c(I)c1)C(=O)NC(CN1CCN(CC(=O)O)CCN(CC(=O)O)CCN(CC(=O)O)CC1)C(=O)O (centres unmarked) ?
Reply text: 6.1

Inquiry: Value lookup for r1^free; key = C[C@H](NC(=O)C(CN1CCN(CC(=O)O)CCN(CC(=O)O)CCN(CC(=O)O)CC1)NC(=O)C(N)Cc1cc(I)c(O)c(I)c1)c1ccccc1 (single isomer, unassigned) [Gd(6a)]
Reply text: 7.1

Inquiry: Fill blank: measured r1^free of the compound C[C@H](NC(=O)C(CN1CCN(CC(=O)O)CCN(CC(=O)O)CCN(CC(=O)O)CC1)NC(=O)C(N)Cc1cc(I)c(O)c(I)c1)c1ccccc1 (single isomer, unassigned) [Gd(6b)] is ____.
Reply text: 6.8
